Test system: ZR-75-1
Assay: Cell proliferation inhibition assay (MTT)
Type: cell-based
Details: Homo sapiens, 72 hours, read-out: Proliferation inhibitory activity IC50

compound | IC50
Cc1ccc(NC(=O)c2ccc(C)c(C(F)(F)F)c2)cc1C#Cc1nn([C@H]2CC[C@H](O)CC2)c2ncnc(N)c12 [Compound 93] | ~10 µM

###

Test system: SW1990
Test: Cell proliferation inhibition assay (MTT)
Assay type: cell-based
Settings: Homo sapiens; SW1990; MTT, 72 hours; read-out: Proliferation inhibitory activity IC50
valueKind: IC50 (µM)

smilesStr | unitAnnotation | value
Cc1ccc(NC(=O)c2cccc(C(F)(F)F)c2)cc1C#Cc1nn(C2CCN(C)CC2)c2ncnc(N)c12 | µM | 0.206

###

Biological target: Ret (Homo sapiens (Human), UniProt P07949)

smilesStr | IC50
Cc1ccc(NC(=O)c2ccc(C)c(C(F)(F)F)c2)cc1C#Cc1nn([C@H]2CC[C@H](O)CC2)c2ncnc(N)c12 | 4 nM

###

Target or system ErbB2 (Homo sapiens (Human)); recorded quantity IC50.
valueKind: IC50

smilesStr | value
Cc1ccc(NC(=O)c2ccc(C)c(C(F)(F)F)c2)cc1C#Cc1nn([C@H]2CC[C@H](O)CC2)c2ncnc(N)c12 | 165 nM
Cc1ccc(NC(=O)c2cccc(C(F)(F)F)c2)cc1C#Cc1nn(C2CCN(C)CC2)c2ncnc(N)c12 | 251 nM

###

Readings of IC50 for the listed compounds
Molecular target: DDR1 (Homo sapiens (Human), UniProt Q08345)
Sequence (Q08345 19-913): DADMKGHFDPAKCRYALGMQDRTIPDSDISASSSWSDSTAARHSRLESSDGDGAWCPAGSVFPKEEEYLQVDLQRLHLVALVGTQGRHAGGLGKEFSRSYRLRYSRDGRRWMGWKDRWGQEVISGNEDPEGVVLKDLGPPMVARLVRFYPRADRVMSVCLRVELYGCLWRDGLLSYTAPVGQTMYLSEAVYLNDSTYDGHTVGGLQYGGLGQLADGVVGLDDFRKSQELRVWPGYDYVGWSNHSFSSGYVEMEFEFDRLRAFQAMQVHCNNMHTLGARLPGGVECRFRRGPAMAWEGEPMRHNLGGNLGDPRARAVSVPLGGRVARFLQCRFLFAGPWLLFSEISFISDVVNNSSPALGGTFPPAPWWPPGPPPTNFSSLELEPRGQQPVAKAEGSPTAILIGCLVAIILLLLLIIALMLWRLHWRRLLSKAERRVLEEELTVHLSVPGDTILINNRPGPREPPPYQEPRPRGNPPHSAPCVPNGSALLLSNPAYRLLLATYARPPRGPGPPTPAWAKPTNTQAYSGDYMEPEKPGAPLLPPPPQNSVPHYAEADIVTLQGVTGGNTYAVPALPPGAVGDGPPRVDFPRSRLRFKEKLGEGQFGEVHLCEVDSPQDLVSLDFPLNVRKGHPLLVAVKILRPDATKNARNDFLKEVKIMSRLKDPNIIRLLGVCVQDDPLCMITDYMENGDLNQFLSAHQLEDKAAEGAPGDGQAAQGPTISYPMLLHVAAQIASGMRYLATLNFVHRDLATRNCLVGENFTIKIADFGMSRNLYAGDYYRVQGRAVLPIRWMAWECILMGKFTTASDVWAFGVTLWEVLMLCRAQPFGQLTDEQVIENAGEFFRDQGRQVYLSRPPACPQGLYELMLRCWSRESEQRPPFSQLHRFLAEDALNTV

smilesStr | unitAnnotation | IC50
CCn1nc(C#Cc2cc(C(=O)Nc3ccc(CN4CCN(C)CC4)c(C(F)(F)F)c3)ccc2C)c2c(N)ncnc21 | nM | 9
Cc1ccc(NC(=O)c2ccc(C)c(C(F)(F)F)c2)cc1C#Cc1nn([C@H]2CC[C@H](O)CC2)c2ncnc(N)c12 | nM | 15

###

Biological target: Bmx (Homo sapiens (Human), UniProt P51813)
Sequence (P51813 whole entry): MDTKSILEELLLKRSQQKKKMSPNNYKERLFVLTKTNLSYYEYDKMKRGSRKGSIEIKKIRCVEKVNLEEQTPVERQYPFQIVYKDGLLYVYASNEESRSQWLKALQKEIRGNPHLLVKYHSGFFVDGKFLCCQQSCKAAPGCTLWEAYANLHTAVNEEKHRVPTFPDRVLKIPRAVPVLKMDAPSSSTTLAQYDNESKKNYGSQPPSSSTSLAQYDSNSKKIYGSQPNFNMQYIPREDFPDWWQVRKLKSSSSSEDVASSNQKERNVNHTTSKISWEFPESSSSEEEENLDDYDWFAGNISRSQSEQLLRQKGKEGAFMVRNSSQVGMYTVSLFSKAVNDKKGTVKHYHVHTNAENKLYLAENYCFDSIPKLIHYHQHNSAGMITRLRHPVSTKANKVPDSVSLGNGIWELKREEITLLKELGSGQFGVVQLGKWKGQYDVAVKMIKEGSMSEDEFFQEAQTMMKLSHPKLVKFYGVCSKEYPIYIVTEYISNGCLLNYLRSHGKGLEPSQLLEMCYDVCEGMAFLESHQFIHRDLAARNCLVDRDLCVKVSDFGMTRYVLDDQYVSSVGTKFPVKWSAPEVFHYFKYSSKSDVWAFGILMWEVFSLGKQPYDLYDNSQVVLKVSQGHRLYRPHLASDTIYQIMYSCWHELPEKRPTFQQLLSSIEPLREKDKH
Assay: Kinase inhibition assay (KinaseProfiler, 33P-ATP)

smilesStr | IC50 / nM
CCn1nc(C#Cc2cc(C(=O)Nc3ccc(CN4CCN(C)CC4)c(C(F)(F)F)c3)ccc2C)c2c(N)ncnc21 | 6
Cc1ccc(NC(=O)c2cccc(C(F)(F)F)c2)cc1C#Cc1nn(C2CCN(C)CC2)c2ncnc(N)c12 | 18

###

Target: Bmx (Homo sapiens (Human), UniProt P51813)
Assay: Kinase inhibition assay (KinaseProfiler, 33P-ATP)
Settings: Bmx; ATP at Km
valueKind: IC50 (nM)

smilesStr | value
Cc1ccc(NC(=O)c2ccc(C)c(C(F)(F)F)c2)cc1C#Cc1nn([C@H]2CC[C@H](O)CC2)c2ncnc(N)c12 | 21

###

Molecular target: JAK2 (Homo sapiens (Human))
Sequence (O60674 whole entry): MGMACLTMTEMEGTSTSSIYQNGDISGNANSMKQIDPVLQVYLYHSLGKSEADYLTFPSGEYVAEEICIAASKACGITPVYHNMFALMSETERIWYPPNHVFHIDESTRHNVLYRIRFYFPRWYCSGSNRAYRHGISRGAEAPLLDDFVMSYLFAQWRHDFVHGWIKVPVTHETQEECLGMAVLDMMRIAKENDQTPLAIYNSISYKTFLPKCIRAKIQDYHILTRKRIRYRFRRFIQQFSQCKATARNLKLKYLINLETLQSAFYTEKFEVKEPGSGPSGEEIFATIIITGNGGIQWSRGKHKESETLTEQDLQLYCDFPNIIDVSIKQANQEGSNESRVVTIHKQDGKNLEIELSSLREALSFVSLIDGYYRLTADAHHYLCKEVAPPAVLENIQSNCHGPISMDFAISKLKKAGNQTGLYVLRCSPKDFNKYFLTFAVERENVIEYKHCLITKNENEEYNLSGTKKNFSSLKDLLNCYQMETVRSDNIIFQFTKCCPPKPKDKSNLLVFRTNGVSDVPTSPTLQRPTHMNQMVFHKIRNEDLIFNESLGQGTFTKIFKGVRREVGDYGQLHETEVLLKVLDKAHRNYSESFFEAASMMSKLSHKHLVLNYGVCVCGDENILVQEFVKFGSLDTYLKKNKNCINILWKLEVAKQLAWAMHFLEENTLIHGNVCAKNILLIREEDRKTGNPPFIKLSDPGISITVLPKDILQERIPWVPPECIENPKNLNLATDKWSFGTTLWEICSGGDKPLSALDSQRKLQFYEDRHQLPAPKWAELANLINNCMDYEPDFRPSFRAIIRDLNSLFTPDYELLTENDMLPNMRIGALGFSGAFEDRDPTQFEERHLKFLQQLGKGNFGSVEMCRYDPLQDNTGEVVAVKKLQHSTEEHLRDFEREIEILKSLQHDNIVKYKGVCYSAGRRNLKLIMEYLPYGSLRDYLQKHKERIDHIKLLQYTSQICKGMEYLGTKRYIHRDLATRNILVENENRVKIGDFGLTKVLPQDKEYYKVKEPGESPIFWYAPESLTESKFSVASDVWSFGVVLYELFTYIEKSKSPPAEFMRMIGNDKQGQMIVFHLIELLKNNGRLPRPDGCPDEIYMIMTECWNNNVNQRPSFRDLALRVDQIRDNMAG
valueKind: IC50

compound | value
CCn1nc(C#Cc2cc(C(=O)Nc3ccc(CN4CCN(C)CC4)c(C(F)(F)F)c3)ccc2C)c2c(N)ncnc21 [Compound 3] | 2.91 µM

###

Listing of recorded remaining activity at 10 µM by entry.
Biological target: Fyn (Homo sapiens (Human))
Sequence (P06241 whole entry): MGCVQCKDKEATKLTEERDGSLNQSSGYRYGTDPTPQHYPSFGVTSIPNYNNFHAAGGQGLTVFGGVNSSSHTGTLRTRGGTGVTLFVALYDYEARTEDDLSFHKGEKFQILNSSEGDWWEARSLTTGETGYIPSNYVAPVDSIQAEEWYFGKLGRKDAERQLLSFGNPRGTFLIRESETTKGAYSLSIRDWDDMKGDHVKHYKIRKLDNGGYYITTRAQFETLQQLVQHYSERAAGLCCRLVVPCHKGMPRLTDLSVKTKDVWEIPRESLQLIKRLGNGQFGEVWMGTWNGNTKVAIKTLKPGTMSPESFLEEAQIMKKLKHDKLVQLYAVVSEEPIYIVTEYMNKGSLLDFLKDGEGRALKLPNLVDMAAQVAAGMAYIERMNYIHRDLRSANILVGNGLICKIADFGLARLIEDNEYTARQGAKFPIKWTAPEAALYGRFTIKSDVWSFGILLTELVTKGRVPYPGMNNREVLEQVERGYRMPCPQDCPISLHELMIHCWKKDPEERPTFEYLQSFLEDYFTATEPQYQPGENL
Test: Kinase inhibition assay (KinaseProfiler, 33P-ATP)
Format: biochemical
Details: Fyn(h); compound at 10 μM; read-out: The percentage of the remaining active protein

smilesStr | targetOfAssay | unitAnnotation | remaining activity at 10 µM
Cc1ccc(NC(=O)c2cccc(C(F)(F)F)c2)cc1C#Cc1nn(C2CCN(C)CC2)c2ncnc(N)c12 | Fyn (Homo sapiens (Human)) | % | -1
CCn1nc(C#Cc2cc(C(=O)Nc3ccc(CN4CCN(C)CC4)c(C(F)(F)F)c3)ccc2C)c2c(N)ncnc21 | Fyn (Homo sapiens (Human)) | % | 0
C=CC(=O)N1CCC(n2nc(C#Cc3cc(C(=O)Nc4ccc(CN5CCN(C)CC5)c(C(F)(F)F)c4)ccc3C)c3c(N)ncnc32)CC1 | Fyn (Homo sapiens (Human)) | % | -1
Cc1ccc(C(=O)Nc2ccc(CN3CCN(C)CC3)c(C(F)(F)F)c2)cc1C#Cc1nn(C2CCNCC2)c2ncnc(N)c12 | Fyn (Homo sapiens (Human)) | % | 1

###

Tested on: MDA-MB-415
Test: Cell proliferation inhibition assay (MTT)
Format: cell-based
Settings: Homo sapiens, 72 hours, read-out: Proliferation inhibitory activity IC50

smilesStr | IC50
Cc1ccc(NC(=O)c2ccc(C)c(C(F)(F)F)c2)cc1C#Cc1nn([C@H]2CC[C@H](O)CC2)c2ncnc(N)c12 | ~10 µM

###

Target: UniProt P07947
Sequence (P07947 whole entry): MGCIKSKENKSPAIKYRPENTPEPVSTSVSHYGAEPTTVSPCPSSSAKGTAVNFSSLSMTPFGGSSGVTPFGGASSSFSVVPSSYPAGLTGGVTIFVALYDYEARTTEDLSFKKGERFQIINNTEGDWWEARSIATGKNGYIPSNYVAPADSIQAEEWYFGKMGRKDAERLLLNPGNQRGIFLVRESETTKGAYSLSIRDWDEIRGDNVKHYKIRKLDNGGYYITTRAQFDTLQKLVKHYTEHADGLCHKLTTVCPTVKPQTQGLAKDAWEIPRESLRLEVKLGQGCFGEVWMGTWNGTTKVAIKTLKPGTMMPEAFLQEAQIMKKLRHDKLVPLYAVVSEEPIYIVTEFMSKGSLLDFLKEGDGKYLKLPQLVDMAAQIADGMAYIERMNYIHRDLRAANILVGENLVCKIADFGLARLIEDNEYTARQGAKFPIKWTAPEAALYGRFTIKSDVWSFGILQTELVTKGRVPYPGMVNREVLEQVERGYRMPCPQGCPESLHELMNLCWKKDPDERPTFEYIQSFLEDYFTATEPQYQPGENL
Assay: Kinase inhibition assay (KinaseProfiler, 33P-ATP)
Type: biochemical
Conditions: Yes; ATP at Km
# reported IC50; entries follow

compound | qualifierOperator | IC50 / nM
Cc1ccc(NC(=O)c2cccc(C(F)(F)F)c2)cc1C#Cc1nn(C2CCN(C)CC2)c2ncnc(N)c12 [Compound 31] | < | 1
Cc1ccc(C(=O)Nc2ccc(CN3CCN(C)CC3)c(C(F)(F)F)c2)cc1C#Cc1nn(C2CCNCC2)c2ncnc(N)c12 [Compound 120] | < | 1
C=CC(=O)N1CCC(n2nc(C#Cc3cc(C(=O)Nc4ccc(CN5CCN(C)CC5)c(C(F)(F)F)c4)ccc3C)c3c(N)ncnc32)CC1 [Compound 121] | = | 2
Cc1ccc(NC(=O)c2ccc(C)c(C(F)(F)F)c2)cc1C#Cc1nn([C@H]2CC[C@H](O)CC2)c2ncnc(N)c12 [Compound 93] | = | 1
CCn1nc(C#Cc2cc(C(=O)Nc3ccc(CN4CCN(C)CC4)c(C(F)(F)F)c3)ccc2C)c2c(N)ncnc21 [Compound 3] | < | 1

###

Molecular target: KDR (Homo sapiens (Human))
Experiment: Kinase inhibition assay (KinaseProfiler, 33P-ATP)
Format: biochemical
Settings: KDR; ATP at Km
pIC50: −log10 of the molar value.

compound | pIC50
CCn1nc(C#Cc2cc(C(=O)Nc3ccc(CN4CCN(C)CC4)c(C(F)(F)F)c3)ccc2C)c2c(N)ncnc21 [Compound 3] | 7.77

###

Molecular target: EphA2 (Homo sapiens (Human), UniProt P29317)
Assay: Kinase inhibition assay (KinaseProfiler, 33P-ATP)
Conditions: EphA2; ATP at Km

smilesStr | unitAnnotation | IC50
CCn1nc(C#Cc2cc(C(=O)Nc3ccc(CN4CCN(C)CC4)c(C(F)(F)F)c3)ccc2C)c2c(N)ncnc21 | nM | 16

###

pIC50: −log10 of the molar value.
The listing below reports pIC50 for compounds tested on TrkA (Homo sapiens (Human)).
valueKind: pIC50

compound | targetOfAssay | value
Cc1ccc(C(=O)Nc2ccc(CN3CCN(C)CC3)c(C(F)(F)F)c2)cc1C#Cc1nn(C2CCNCC2)c2ncnc(N)c12 [Compound 120] | TrkA (Homo sapiens (Human)) | 7.04
C=CC(=O)N1CCC(n2nc(C#Cc3cc(C(=O)Nc4ccc(CN5CCN(C)CC5)c(C(F)(F)F)c4)ccc3C)c3c(N)ncnc32)CC1 [Compound 121] | TrkA (Homo sapiens (Human)) | 7.28

###

Listed compounds paired with reported remaining activity at 10 µM
Biological target: Lyn (Homo sapiens (Human))
Sequence (P07948 whole entry): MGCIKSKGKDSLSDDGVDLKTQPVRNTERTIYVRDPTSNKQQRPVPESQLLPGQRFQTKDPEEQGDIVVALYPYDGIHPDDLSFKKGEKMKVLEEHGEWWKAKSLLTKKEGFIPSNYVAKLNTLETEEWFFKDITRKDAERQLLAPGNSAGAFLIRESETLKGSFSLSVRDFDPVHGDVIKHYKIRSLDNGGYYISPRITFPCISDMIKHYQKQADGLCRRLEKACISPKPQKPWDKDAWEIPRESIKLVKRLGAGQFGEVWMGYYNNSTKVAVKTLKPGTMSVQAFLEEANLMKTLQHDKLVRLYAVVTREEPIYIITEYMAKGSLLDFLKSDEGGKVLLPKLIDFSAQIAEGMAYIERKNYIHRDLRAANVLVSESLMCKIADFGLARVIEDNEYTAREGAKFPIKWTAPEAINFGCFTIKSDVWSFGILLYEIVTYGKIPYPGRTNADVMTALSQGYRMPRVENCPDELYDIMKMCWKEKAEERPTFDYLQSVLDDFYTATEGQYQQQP
Assay: Kinase inhibition assay (KinaseProfiler, 33P-ATP)
Assay type: biochemical
Conditions: Lyn(h); compound at 10 μM; read-out: The percentage of the remaining active protein

compound | targetOfAssay | unitAnnotation | remaining activity at 10 µM
Cc1ccc(C(=O)Nc2ccc(CN3CCN(C)CC3)c(C(F)(F)F)c2)cc1C#Cc1nn(C2CCNCC2)c2ncnc(N)c12 [Compound 120] | Lyn (Homo sapiens (Human)) | % | -2
CCn1nc(C#Cc2cc(C(=O)Nc3ccc(CN4CCN(C)CC4)c(C(F)(F)F)c3)ccc2C)c2c(N)ncnc21 [Compound 3] | Lyn (Homo sapiens (Human)) | % | 0
C=CC(=O)N1CCC(n2nc(C#Cc3cc(C(=O)Nc4ccc(CN5CCN(C)CC5)c(C(F)(F)F)c4)ccc3C)c3c(N)ncnc32)CC1 [Compound 121] | Lyn (Homo sapiens (Human)) | % | 2
Cc1ccc(NC(=O)c2cccc(C(F)(F)F)c2)cc1C#Cc1nn(C2CCN(C)CC2)c2ncnc(N)c12 [Compound 31] | Lyn (Homo sapiens (Human)) | % | 0

###

Biological target: UniProt Q15759
Sequence (Q15759 whole entry): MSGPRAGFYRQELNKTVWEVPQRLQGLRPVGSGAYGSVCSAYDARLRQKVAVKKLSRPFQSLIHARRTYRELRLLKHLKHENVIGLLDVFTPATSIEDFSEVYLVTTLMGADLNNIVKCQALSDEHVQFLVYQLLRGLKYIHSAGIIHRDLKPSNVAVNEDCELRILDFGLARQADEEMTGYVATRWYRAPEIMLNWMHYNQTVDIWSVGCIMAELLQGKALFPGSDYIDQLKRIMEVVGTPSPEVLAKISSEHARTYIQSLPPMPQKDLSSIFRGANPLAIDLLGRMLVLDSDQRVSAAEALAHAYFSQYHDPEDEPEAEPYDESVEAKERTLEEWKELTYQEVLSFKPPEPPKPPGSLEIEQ

smilesStr | unitAnnotation | IC50
Cc1ccc(NC(=O)c2ccc(C)c(C(F)(F)F)c2)cc1C#Cc1nn([C@H]2CC[C@H](O)CC2)c2ncnc(N)c12 | nM | 84

###

Tested on: SMMC7721
Assay: Cell proliferation inhibition assay (MTT)
Type: cell-based
Conditions: Homo sapiens, SMMC-7721, 72 hours, read-out: Proliferation inhibitory activity IC50
valueKind: IC50

smilesStr | value
Cc1ccc(NC(=O)c2ccc(C)c(C(F)(F)F)c2)cc1C#Cc1nn([C@H]2CC[C@H](O)CC2)c2ncnc(N)c12 | > 10 µM

###

EphB2 (Homo sapiens (Human)) measurements of IC50, listed per entry.
valueKind: IC50 (nM)

smilesStr | valueKind | value
Cc1ccc(NC(=O)c2cccc(C(F)(F)F)c2)cc1C#Cc1nn(C2CCN(C)CC2)c2ncnc(N)c12 | IC50 | 10
Cc1ccc(NC(=O)c2ccc(C)c(C(F)(F)F)c2)cc1C#Cc1nn([C@H]2CC[C@H](O)CC2)c2ncnc(N)c12 | IC50 | 33
